target: GST-RORγ (Homo sapiens, UniProt P51449); construct: 1 μg of GST-RORγ-LBD, 5 nM of [3H]T1317 as radioligand; assay: RORγ scintillation proximity (SPA) radioligand binding assay, displacement of [3H]-T0901317; conditions: 10 μM compound; read-out: RORγ SPA % bound = % radiolabel bound
Consider the following compounds and their measured remaining activity at 10 µM readings.
Only the number, expressed in %, is required.

Worked examples follow.
OC(c1ccc(-c2ccc(CN3CCN(Cc4c[nH]cn4)CC3)cc2)cc1)(C(F)(F)F)C(F)(F)F
48
OC(c1ccc(-c2ccc(CN3CCN(Cc4cscn4)CC3)cc2)cc1)(C(F)(F)F)C(F)(F)F
75
O=C1CN(Cc2ccncc2)CCN1Cc1ccc(-c2ccc(C(O)(C(F)(F)F)C(F)(F)F)cc2)cc1
15
OC(c1ccc(-c2ccc(CN3CCN(Cc4ccncc4)CC3)cc2)cc1F)(C(F)(F)F)C(F)(F)F
80
OC(c1ccc(-c2ccc(CN3CCN(C4CC4)CC3)cc2)cc1)(C(F)(F)F)C(F)(F)F
20
O=C1CN(Cc2ccc(-c3ccc(C(O)(C(F)(F)F)C(F)(F)F)cc3)cc2)CCN1Cc1ccncc1
15

// query Which remaining activity at 10 µM value belongs to O=C(c1cscn1)N1CCN(Cc2ccc(-c3ccc(C(O)(C(F)(F)F)C(F)(F)F)cc3)cc2)CC1 ?
// result 76

====

Biological target: RORγ (Homo sapiens, UniProt P51449)
Construct: expressed in transfected cells; host or cells: HEK293T
Sequence (P51449 269-508 limits assumed): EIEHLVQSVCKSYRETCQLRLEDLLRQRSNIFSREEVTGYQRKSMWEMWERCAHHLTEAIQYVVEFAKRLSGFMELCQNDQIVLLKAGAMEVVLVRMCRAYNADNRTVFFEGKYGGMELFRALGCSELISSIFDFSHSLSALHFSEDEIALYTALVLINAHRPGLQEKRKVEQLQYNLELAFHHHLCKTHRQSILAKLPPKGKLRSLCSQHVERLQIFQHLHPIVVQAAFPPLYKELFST
Experiment: Gal4-RORγ LBD / UAS luciferase cotransfection assay
Type: cell-based
Conditions: 10 μM
MEASURE NAME: RORγ repression, fold change over DMSO (fold change over DMSO)
Only the number, expressed in fold change over DMSO, is required.

Worked examples follow.
CS(=O)(=O)N1CCN(Cc2ccc(-c3ccc(C(O)(C(F)(F)F)C(F)(F)F)cc3)cc2)CC1
0.5
OC(c1ccc(-c2ccc(CN3CCN(C4CC4)CC3)cc2)cc1)(C(F)(F)F)C(F)(F)F
0.25
O=S(=O)(c1ccccc1)N1CCN(Cc2ccc(-c3ccc(C(O)(C(F)(F)F)C(F)(F)F)cc3)cc2)CC1
0.8

With those in mind, consider the next compound.
// query Which RORγ repression, fold change over DMSO value belongs to OC(c1ccc(-c2ccc(CN3CCN(Cc4nc5ccccc5s4)CC3)cc2)cc1)(C(F)(F)F)C(F)(F)F ?
// result 0.2

====

target: GST-RORγ (Homo sapiens); construct: 1 μg of GST-RORγ-LBD, 5 nM of [3H]T1317 as radioligand; experiment: RORγ scintillation proximity (SPA) radioligand binding assay, displacement of [3H]-T0901317; conditions: 1 μM compound (Table 2D); read-out: RORγ SPA % bound = % radiolabel bound
Consider the cut-off 60%. If the recorded remaining activity at 1 µM is strictly smaller, the label is yes (1); if not, the label is no (0).

Before answering, review these 3 worked examples.
CC(c1ccc(-c2ccc(C(O)(C(F)(F)F)C(F)(F)F)cc2)cc1)N1CCN(Cc2ccncc2)CC1 (stereo not shown)
no (0)
CC(C)CCN1CCN(Cc2ccc(-c3ccc(C(O)(C(F)(F)F)C(F)(F)F)cc3)cc2)CC1
yes (1)
O=C(Nc1ccc(-c2ccc(C(O)(C(F)(F)F)C(F)(F)F)cc2)cc1)N1CCN(Cc2ccncc2)CC1
no (0)

// query Threshold test, remaining activity at 1 µM < 60%: O=S(=O)(c1ccc(-c2ccc(C(O)(C(F)(F)F)C(F)(F)F)cc2)cc1)N1CCN(Cc2ccncc2)CC1
// result no (0)

// query What would you report for CCCCC(c1ccc(-c2ccc(C(O)(C(F)(F)F)C(F)(F)F)cc2)cc1)N1CCN(Cc2ccncc2)CC1 (stereo not shown) ?
// result no (0)

// query What would you report for OC(c1ccc(-c2ccc3c(c2)CCN3C2CCN(Cc3ccncc3)CC2)cc1)(C(F)(F)F)C(F)(F)F ?
// result yes (1)

====

molecular target: RORα (Homo sapiens, UniProt P35398); construct: expressed in transfected cells; host or cells: HEK293T; test: Gal4-RORα LBD / UAS luciferase cotransfection assay; format: cell-based; conditions: 10 μM
Sequence (P35398 272-510 limits assumed): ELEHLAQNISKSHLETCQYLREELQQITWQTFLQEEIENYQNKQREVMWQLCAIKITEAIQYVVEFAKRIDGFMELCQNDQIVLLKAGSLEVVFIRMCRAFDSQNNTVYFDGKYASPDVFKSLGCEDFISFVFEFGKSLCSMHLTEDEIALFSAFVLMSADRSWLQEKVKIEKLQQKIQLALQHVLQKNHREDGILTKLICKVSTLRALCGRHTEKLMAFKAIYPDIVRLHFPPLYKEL
MEASURE NAME: RORα repression, fold change over DMSO (fold change over DMSO)
Only the number, expressed in fold change over DMSO, is required.

Worked examples follow.
Cc1cc(-c2ccc(C(O)(C(F)(F)F)C(F)(F)F)cc2)ccc1CN1CCN(Cc2ccncc2)CC1
0.5
O=C(c1cscn1)N1CCN(Cc2ccc(-c3ccc(C(O)(C(F)(F)F)C(F)(F)F)cc3)cc2)CC1
0.56
OC(c1ccc(-c2ccc(CN3CCN(CCc4ccncc4)CC3)cc2)cc1)(C(F)(F)F)C(F)(F)F
0.5
CS(=O)(=O)N1CCN(Cc2ccc(-c3ccc(C(O)(C(F)(F)F)C(F)(F)F)cc3)cc2)CC1
1.1
OC(c1ccc(-c2ccc(CN3CCN(Cc4ccncc4Br)CC3)cc2)cc1)(C(F)(F)F)C(F)(F)F
0.4
OC(c1ccc(-c2ccc(CN3CCN(c4ccccc4)CC3)cc2)cc1)(C(F)(F)F)C(F)(F)F
0.4

// query Which RORα repression, fold change over DMSO value belongs to OC(c1ccc(-c2ccc(CN3CCN(Cc4cccs4)CC3)cc2)cc1)(C(F)(F)F)C(F)(F)F ?
// result 0.75

// query What would you report for OC(c1ccc(-c2ccc(CN3CCN(Cc4cscn4)CC3)cc2)cc1)(C(F)(F)F)C(F)(F)F ?
// result 0.61

// query What would you report for O=C(c1ccc(-c2ccc(C(O)(C(F)(F)F)C(F)(F)F)cc2)cc1)N1CCN(Cc2ccncc2)CC1 ?
// result 0.6

====

Consider the following compounds and their measured RORγ repression, fold change over DMSO readings.
molecular target: RORγ (Homo sapiens, UniProt P51449); construct: expressed in transfected cells; host or cells: HEK293T; assay: Gal4-RORγ LBD / UAS luciferase cotransfection assay; assay type: cell-based; details: 10 μM
Only the number, expressed in fold change over DMSO, is required.

Worked examples follow.
OC(c1ccc(-c2ccc(CN3CCN(Cc4cc5cc(F)ccc5[nH]4)CC3)cc2)cc1)(C(F)(F)F)C(F)(F)F [Compound 20]
0.05
OC(c1ccc(-c2ccc(CN3CCN(Cc4ccnc(Br)c4)CC3)cc2)cc1)(C(F)(F)F)C(F)(F)F [Compound 40]
0.05

// query Form entry - test system: RORγ (Homo sapiens, UniProt P51449); read-out: RORγ repression, fold change over DMSO; compound: OC(c1ccc(-c2ccc(CN3CCN(Cc4ccncc4)CC3)c(F)c2)cc1)(C(F)(F)F)C(F)(F)F [Compound 98]
// result 0.05

// query What would you report for O=C(c1ccccc1)N1CCN(Cc2ccc(-c3ccc(C(O)(C(F)(F)F)C(F)(F)F)cc3)cc2)CC1 [Compound 26] ?
// result 0.8

// query What would you report for O=[N+]([O-])c1ccc(S(=O)(=O)N2CCN(Cc3ccc(-c4ccc(C(O)(C(F)(F)F)C(F)(F)F)cc4)cc3)CC2)cc1 [Example 149] ?
// result 0.5

// query What would you report for OC(c1ccc(-c2ccc(CN3CCN(CCc4ccncc4)CC3)cc2)cc1)(C(F)(F)F)C(F)(F)F [Compound 41] ?
// result 0.3

// query What would you report for OC(c1ccc(-c2ccc(CN3CCC(Cc4ccc5c(c4)OCO5)CC3)cc2)cc1)(C(F)(F)F)C(F)(F)F [Compound 88] ?
// result 0.2

// query What would you report for O=S(=O)(c1ccc(C(F)(F)F)cc1)N1CCN(Cc2ccc(-c3ccc(C(O)(C(F)(F)F)C(F)(F)F)cc3)cc2)CC1 [Example 146] ?
// result 0.9

// query What would you report for O=C(NCc1ccccc1)N1CCN(Cc2ccc(-c3ccc(C(O)(C(F)(F)F)C(F)(F)F)cc3)cc2)CC1 [Compound 24] ?
// result 0.25

====

Target: UniProt P51449
Sequence (P51449 269-508 limits assumed): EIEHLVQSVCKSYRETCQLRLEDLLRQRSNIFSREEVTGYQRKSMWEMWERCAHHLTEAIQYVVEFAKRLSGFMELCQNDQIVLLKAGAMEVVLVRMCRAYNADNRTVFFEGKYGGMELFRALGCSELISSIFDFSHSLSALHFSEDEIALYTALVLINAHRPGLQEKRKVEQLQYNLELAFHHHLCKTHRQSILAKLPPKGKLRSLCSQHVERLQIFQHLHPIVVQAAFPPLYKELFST
MEASURE NAME: IC50 (µM)
Only the number, expressed in µM, is required.

Worked examples follow.
COc1cc(-c2ccc(C(O)(C(F)(F)F)C(F)(F)F)cc2)ccc1CN1CCN(Cc2ccncc2)CC1
1.5
OC(c1ccc(-c2ccc(CN3CCN(Cc4ccncc4Br)CC3)cc2)cc1)(C(F)(F)F)C(F)(F)F
1.1

With those in mind, consider the next molecule.
// query Which IC50 value belongs to OC(c1ccc(-c2ccc(CN3CCN(Cc4ccncc4)CC3)cc2)cc1)(C(F)(F)F)C(F)(F)F ?
// result 0.15

This collection of values is drawn from patent US9586928B2.
